- Tested on: PPARg homodimer (NR concentration 180 nM)
- method summary: PBM binding z-score (relative to random genomic background probes); higher = stronger binding; sequences stand for … in GC…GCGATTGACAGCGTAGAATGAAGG
We use 2 as the dividing line for PBM binding z-score: on or above the line is yes, below is no.

Consider the following illustrative entries.
INSERT INTO results (chain_sequence, class_label) VALUES
  ('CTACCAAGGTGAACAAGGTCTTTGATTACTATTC', 'no'),
  ('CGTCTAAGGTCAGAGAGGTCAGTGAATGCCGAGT', 'yes'),
  ('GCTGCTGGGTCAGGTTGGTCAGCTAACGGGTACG', 'no'),
  ('GGAACAAGGGCAAGTTGATAGCAGAGTTTGATGG', 'no'),
  ('ACAGTCAGGTGATGAAGGTAACTCAGGCTATCAT', 'no');

PBM binding z-score >= 2 for `GCTATTAGTTGAAAGGGCAACCCAATGATTCTCG` ?
no

Textbook exercise: given the entry `ATATGTAGGTTATAGGGTCATTCAGTTTGCGCAT` , state whether its PBM binding z-score is greater than or equal to 2.
yes

Is reported PBM binding z-score greater than or equal to 2 here: `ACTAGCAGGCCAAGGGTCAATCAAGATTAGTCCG`
no

Threshold query (PBM binding z-score >= 2) on `ATATGTAGGTTAGCTAGGGTCATTCAGACTAGGC`
yes

Reported PBM binding z-score at or above 2? `CGTCAAAGTTCAACTAAGGTAACGAAAAGCACGC`
yes

Threshold query (PBM binding z-score >= 2) on `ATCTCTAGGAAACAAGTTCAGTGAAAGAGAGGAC`
no

Could you verify whether the entry `AAATGTAGGTTAGCTGGGGTCATTCAGACTAGGC` shows PBM binding z-score of no less than 2?
yes

Assess whether reported PBM binding z-score for `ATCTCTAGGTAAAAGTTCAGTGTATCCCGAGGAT` sits at 2 or higher.
no

Does the sequence `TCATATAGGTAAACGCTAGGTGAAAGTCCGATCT` have recorded PBM binding z-score that is 2 or more?
no

Given `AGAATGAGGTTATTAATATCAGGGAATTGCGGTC` , state whether its PBM binding z-score is at least 2.
no

// inclusive: PBM binding z-score at least 2? input: `ACAAACAGGTGAGTGAAGGTAACTCAGCTGGACG`
no

Item `GATAGAGGGTCAGCTAGAGGCCAGAGTATGGAAA` with PBM binding z-score of 2 or above?
no

hey, is PBM binding z-score for this one >= 2? `TAGCCTAGGTCATTGGGCAAGTATAGTACGCATC`
no

hey, is PBM binding z-score for this one >= 2? `CTAGAAAGGTCGTGCTCAGGTGAGTATACCAAAC`
no

Test whether the sequence `AGTCAAAGTTCACTAGGGAACGTAAGATTCAGCT` records PBM binding z-score of 2 or higher.
yes

Confirm if PBM binding z-score reported for the sequence `ACTTACGGATCAACGAGGTTATAGCACGCGTATA` is 2 or above.
no
